src = the NIST ThermoML archive (doi:10.1016/j.fluid.2006.03.015)

Test: molar heat capacity at constant pressure
Details: 328.15 K; 101.33 kPa; Liquid; modulated-temperature differential scanning calorimetry MDSC
ATTRIBUTE_MEASURED: molar heat capacity at constant pressure (J/K/mol)

In [3]: df
Out[3]:
                                   molecule                        attribute_measured  result
0  CCCC[n+]1ccccc1.O=S(=O)([N-]S(=O)(=O)C(F)(F)F)C(F)(F)F [1-butylpyridinium bis[(trifluoromethyl)sulfonyl]imide]  molar heat capacity at constant pressure     604
1  CCCCCC[n+]1ccn(C)c1.O=S(=O)([N-]S(=O)(=O)C(F)(F)F)C(F)(F)F  molar heat capacity at constant pressure     682
2  CCn1cc[n+](C)c1.O=S(=O)([O-])C(F)(F)F [1-ethyl-3-methylimidazolium trifluoromethanesulfonate]  molar heat capacity at constant pressure     392
